Task for the reader: assign each of the following compounds its reported Potency.
Target: DNA dC->dU-editing enzyme APOBEC-3G (Homo sapiens)
Experiment: qHTS for inhibitors of Vif-A3G interactions: Cherry picks counterscreen;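 also: potency is read from the fitted curve at half-maximal effect; hits raise yellow fluorescence by blocking Vif-driven A3G-eYFP degradation; nearly all actives have a fitted effect of over 70% in size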
Settings: HeLa A3G-eYFP + Vif (tagged APOBEC3G with the HIV-1 protein that degrades it), eYFP fluorescence, 24 h
From the text: The recent discovery and characterization of host restriction factors, which provide a potent defense to invading retroviruses, has provided new targets for antiviral drug development. […] In the presence of an inhibitor, it is expected that Vif will be unable to degrade A3G-eYFP and/or A3F-eYFP, resulting in an increase in yellow fluorescence. […]
Screen size: about 2,100 compounds; about 1,100 (52%) were called active. Another 27% or so got no clear call; they are omitted. So high a share suggests a set chosen from earlier hits. This is one part of the list.

Please look at COc1cccc(-c2ccc3c(N)c(C(=O)c4ccc(Br)cc4)sc3n2)c1 and tell me its recorded Potency on DNA dC->dU-editing enzyme APOBEC-3G (Homo sapiens).
20.6 µM (active)

Give Potency only, for CC(NC(=O)c1ccc(Nc2nc3ccccc3n3nnnc23)cc1)c1ccccc1 (stereo unspecified) , using DNA dC->dU-editing enzyme APOBEC-3G (Homo sapiens) data.
20.6 µM (active)

Enter measured Potency, system DNA dC->dU-editing enzyme APOBEC-3G (Homo sapiens), for the compound shown: COc1cc(OC)c(OC)cc1/C=C1\Oc2cc(OCC(=O)N3Cc4ccccc4C[C@H]3C(=O)O)ccc2C1=O
2.06 µM (active)

Determine reported Potency for CCCn1c(CN2CCN(C(=O)OCC)CC2)nc2cc(NC(=O)C(C)C)ccc21 ; test system: DNA dC->dU-editing enzyme APOBEC-3G (Homo sapiens).
11.2 µM (active)

Give measured Potency for COc1cccc(/C=N/NC(=O)c2[nH]nc3c2CCc2ccccc2-3)c1 (DNA dC->dU-editing enzyme APOBEC-3G (Homo sapiens)).
5.59 µM (active)

Specify Potency for COc1ccc(NC(=O)c2cc(-c3ccccc3OC)on2)cc1 , system DNA dC->dU-editing enzyme APOBEC-3G (Homo sapiens).
3.14 µM (active)

For DNA dC->dU-editing enzyme APOBEC-3G (Homo sapiens), give Potency of the listed compound: C(=Cc1c[nH]c2ccccc12)c1nccc2ccccc12
20.6 µM (active)

# return Potency for Cn1cccc1/C=C1\SC(=Nc2ccccc2)NC1=O , test system: DNA dC->dU-editing enzyme APOBEC-3G (Homo sapiens)
2.5 µM (active)

Please tell me the measured Potency for COc1ccc(-c2csc(-c3ccc(O)cc3)n2)cc1 ; system: DNA dC->dU-editing enzyme APOBEC-3G (Homo sapiens).
5.59 µM (active)

System DNA dC->dU-editing enzyme APOBEC-3G (Homo sapiens). Read-out Potency. Item Fc1ccc(CNc2nc3ccccc3n3nnnc23)cc1 . Report value.
23.1 µM (active)

// fetch Potency; item: Fc1ccccc1Nc1nc2ccccc2n2nnnc12 ; system: DNA dC->dU-editing enzyme APOBEC-3G (Homo sapiens)
20.6 µM (active)

Name the recorded Potency of O=C1CC(c2ccccc2F)c2cc3c(cc2N1)CCC3 (stereo unspecified) , assay system DNA dC->dU-editing enzyme APOBEC-3G (Homo sapiens).
2.8 µM (active)

Give Potency for CCN(CC)c1ccc(/C=N/NC(=O)c2ccco2)cc1 tested on DNA dC->dU-editing enzyme APOBEC-3G (Homo sapiens).
8.86 µM (active)

Provide DNA dC->dU-editing enzyme APOBEC-3G (Homo sapiens) Potency reading for COCCN1C(=O)/C(=C/c2ccc(N3CCCC3)cc2C)SC1=S .
4.11 µM (active)

Provide the reported Potency (system: DNA dC->dU-editing enzyme APOBEC-3G (Homo sapiens)) for N#CCC(=O)N/N=C/c1ccc(N2N=C(c3ccccc3)CC2c2ccccc2)cc1 (stereo unspecified)
16.4 µM (active)

Report the value of Potency obtained on DNA dC->dU-editing enzyme APOBEC-3G (Homo sapiens) for CCOC(=O)C1CCCN(C(=O)c2ccc3nc(-c4cccc(OC)c4)oc3c2)C1 (stereo unspecified) .
7.04 µM (active)

Provide Potency, recorded with DNA dC->dU-editing enzyme APOBEC-3G (Homo sapiens), of CC(/C=N/NC(=O)c1cc(-c2ccccc2)nc2ccccc12)=C\c1ccco1
2.23 µM (active)

For DNA dC->dU-editing enzyme APOBEC-3G (Homo sapiens), give Potency of the listed compound: CCc1ccc(/C=N/NC(=O)c2cc(-c3ccncc3)nc3ccccc23)s1
3.53 µM (active)

Answer briefly: Potency recorded on DNA dC->dU-editing enzyme APOBEC-3G (Homo sapiens) for N#C/C(=C\c1ccc(N2CCOCC2)o1)C(=O)NC1CCCCC1
17.7 µM (active)

# return Potency for O=C(N/N=C/c1ccco1)c1cc(-c2ccncc2)nc2ccccc12 , test system: DNA dC->dU-editing enzyme APOBEC-3G (Homo sapiens)
11.2 µM (active)

Check DNA dC->dU-editing enzyme APOBEC-3G (Homo sapiens) data and give Potency for N#C/C(=C\c1ccc(-c2ccc(C(=O)O)cc2)o1)c1nc2ccccc2[nH]1 .
4.61 µM (active)

Give Potency for this entry on DNA dC->dU-editing enzyme APOBEC-3G (Homo sapiens): CC(/C=N/NC(=O)c1cc(-c2ccc3ccccc3c2)n[nH]1)=C\c1ccco1
14 µM (active)

Under DNA dC->dU-editing enzyme APOBEC-3G (Homo sapiens), report Potency for CCN(CC)c1ccc(/C=N/N=C(N)N)c(O)c1
5.59 µM (active)

Report Potency under test system DNA dC->dU-editing enzyme APOBEC-3G (Homo sapiens) for Cc1ccc(N=C2NC(=O)/C(=C/c3cccn3C)S2)cc1 .
14 µM (active)

Look up and report Potency, with DNA dC->dU-editing enzyme APOBEC-3G (Homo sapiens) as system, for N#Cc1ccc(-c2cccnc2)nc1SCC(=O)c1ccccc1
2.91 µM (active)

Supply Potency measured with DNA dC->dU-editing enzyme APOBEC-3G (Homo sapiens) for CCOc1ccc(C(=O)COC(=O)Cc2n[nH]c(=O)c3ccccc23)cc1 .
15.8 µM (active)

Report Potency from DNA dC->dU-editing enzyme APOBEC-3G (Homo sapiens) testing of CN(C)c1ccc(/C=C/c2nccc3ccccc23)cc1
13 µM (active)

Lab note: record Potency of O=C(Nc1ccccc1OC(=O)c1ccccc1)c1ccccc1 tested on DNA dC->dU-editing enzyme APOBEC-3G (Homo sapiens).
17.7 µM (active)

Answer briefly: Potency recorded on DNA dC->dU-editing enzyme APOBEC-3G (Homo sapiens) for COc1ccc(C)cc1Nc1c2c(nc3ccccc13)CCC2
0.886 µM (active)

Please report the measured Potency for COc1ccccc1N1CCN(C(=O)c2cc(=O)c3cc(C)cc(C)c3o2)CC1 tested on DNA dC->dU-editing enzyme APOBEC-3G (Homo sapiens).
0.158 µM (active)

Specify Potency for Cc1ccc2nc(/C(C#N)=C/c3ccc(-c4cccc(Cl)c4)o3)[nH]c2c1 , system DNA dC->dU-editing enzyme APOBEC-3G (Homo sapiens).
8.2 µM (active)
